Reported IC50 values are given for each entry in this list.
# ASSAY SYSTEM: T1, biotinylated dimeric human CD48 protein expressed as a fusion with mouse IgG2a Fc (human, biotinylated)
# T1 construct: also called bio-hCD48-mFc; Dimeric human CD48-mFc
# T1 chain: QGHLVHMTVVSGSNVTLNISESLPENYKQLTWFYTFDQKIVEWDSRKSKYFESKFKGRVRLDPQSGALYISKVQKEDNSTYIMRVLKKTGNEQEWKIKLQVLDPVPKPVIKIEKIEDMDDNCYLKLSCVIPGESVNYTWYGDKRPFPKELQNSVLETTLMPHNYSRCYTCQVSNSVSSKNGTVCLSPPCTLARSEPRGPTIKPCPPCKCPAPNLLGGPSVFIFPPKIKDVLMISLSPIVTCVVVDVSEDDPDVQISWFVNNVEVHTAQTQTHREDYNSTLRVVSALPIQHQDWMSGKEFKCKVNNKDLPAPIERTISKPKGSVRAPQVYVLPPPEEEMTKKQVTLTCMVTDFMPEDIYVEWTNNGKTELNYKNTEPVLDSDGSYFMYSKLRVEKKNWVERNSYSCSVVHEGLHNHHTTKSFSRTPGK
# ASSAY NOTES: competition ELISA; blocks bio-hCD48-mFc binding to coated h2B4-hFc
Numbers only; they are read as nM.

Request: Consider the binder shown here: H2M1811N (antibody, mouse IgG2, V domains shown, Human variable domains, mouse IgG2 Fc (H2M)) VH: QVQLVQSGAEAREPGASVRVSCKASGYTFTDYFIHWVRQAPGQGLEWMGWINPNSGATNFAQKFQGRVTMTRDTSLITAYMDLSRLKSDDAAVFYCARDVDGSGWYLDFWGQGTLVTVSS VL: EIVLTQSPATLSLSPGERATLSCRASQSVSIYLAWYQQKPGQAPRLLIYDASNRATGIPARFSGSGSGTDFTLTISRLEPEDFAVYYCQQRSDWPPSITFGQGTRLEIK What is its recorded IC50?
Result: 0.49

Request: Next binder up: H2M1707N (antibody, V domains shown, Human variable domains, mouse IgG2 Fc (H2M)) VH: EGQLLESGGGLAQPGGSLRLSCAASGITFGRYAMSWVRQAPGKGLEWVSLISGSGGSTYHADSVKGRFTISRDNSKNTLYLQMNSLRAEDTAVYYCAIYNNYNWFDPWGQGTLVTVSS VL: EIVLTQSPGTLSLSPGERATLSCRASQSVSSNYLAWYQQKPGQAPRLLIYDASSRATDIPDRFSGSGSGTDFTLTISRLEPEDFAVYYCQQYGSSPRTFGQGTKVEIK
Result: 0.022

Request: Try this binder next: H2M1712N (antibody, mouse IgG2, V domains shown, Human variable domains, mouse IgG2 Fc (H2M)) VH: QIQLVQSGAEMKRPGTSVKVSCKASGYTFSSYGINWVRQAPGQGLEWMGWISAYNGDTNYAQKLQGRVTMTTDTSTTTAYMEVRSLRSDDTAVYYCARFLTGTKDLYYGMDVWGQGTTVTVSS VL: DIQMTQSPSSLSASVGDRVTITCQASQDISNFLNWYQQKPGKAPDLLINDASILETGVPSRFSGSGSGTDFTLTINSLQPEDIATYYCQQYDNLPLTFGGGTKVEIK
Result: 0.014

Request: Record: H2M1710N (antibody, mouse IgG2, V domains shown, Human variable domains, mouse IgG2 Fc (H2M)) VH: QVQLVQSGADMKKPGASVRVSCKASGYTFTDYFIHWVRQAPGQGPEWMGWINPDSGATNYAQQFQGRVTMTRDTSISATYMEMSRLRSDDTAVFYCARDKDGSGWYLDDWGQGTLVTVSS VL: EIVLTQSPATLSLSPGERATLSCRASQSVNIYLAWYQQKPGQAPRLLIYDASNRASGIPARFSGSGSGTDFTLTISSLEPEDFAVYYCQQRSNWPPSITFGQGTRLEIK
Result: 0.58

FYI, the data here is from patent US20130230533A1.
